- Test system: SR
- assay: NCI tumour cell line growth inhibition, 48 h
The source made the active and inactive calls. No stated cut-off is given here; in the data, active = GI50 up to about 1.1 µM and inactive = higher.
readout name: GI50

In the examples that follow, each entry is paired with its recorded GI50.
>>> observed("Cc1cc(OC(=O)Nc2ccc(Cl)cc2)ccc1C(=S)Nc1ccccc1")
"64.3 µM (inactive)"
>>> observed("C[C@]12CCC(=O)C(O)=C1CC[C@@H]1[C@@H]2CC[C@]2(C)C(=O)CC[C@@H]12")
"> 100 µM (inactive)"
>>> observed("O=C1Nc2cccc(Cl)c2/C1=C\\c1c(Cl)nc2n1CCS2")
"> 100 µM (inactive)"
>>> observed("O=C1C2c3[nH]c4ccccc4c3C3CCC(c4ccccc4)CC3C2C(=O)N1c1ccccc1 (centres undefined)")
"92.5 µM (inactive)"
>>> observed("N#CC1(C#N)C(=O)c2ccncc2C1=O")
"> 100 µM (inactive)"

Give the measured GI50 for CCOC(=O)c1sc2c(C(=O)OCC)n3cc(C)cc(C)c3c2c1O > 100 µM (inactive)

Give the measured GI50 for O=C1NC(=O)[C@@H](OCC2CCCCC2)[C@@H]2OCC3OC(C(O)C3O)C12 (some centres undefined) > 100 µM (inactive)

Give the measured GI50 for CC[n+]1c(/C=C/c2ccc(N(CCCl)CCCl)cc2)ccc2cc(Br)ccc21 1.46 µM (inactive)

Give the measured GI50 for Cc1c2cnccc2nc2[nH]c3ccncc3c12 2.79 µM (inactive)

====

- Test system: HCC 2998
- assay: NCI tumour cell line growth inhibition, 48 h
Calls of active or inactive are those of the source. No stated cut-off is given here; in the data, active = GI50 up to about 1.1 µM and inactive = higher.
readout name: GI50

>>> observed("CC(NS(C)(=O)=O)c1ccccc1 (stereo not drawn)")
"> 100 µM (inactive)"
>>> observed("OCC1C2CCC3(OCCO3)C12 (stereo not drawn)")
"> 100 µM (inactive)"
>>> observed("COc1ccc(CCNC(=O)[C@H]2CCCC[C@@H]2CCO)cc1OC")
"> 100 µM (inactive)"
>>> observed("O=C1CCC(=O)C1=NNc1cc(Cl)cc(Cl)c1")
"> 100 µM (inactive)"
>>> observed("CN1c2ccccc2N(C(=O)c2ccccc2)C(CC(=O)O)c2cccn21 (stereo not drawn)")
"> 100 µM (inactive)"

Give the measured GI50 for Cn1cc(NC(=O)c2cc(NC(=O)Nc3cc(C(=O)Nc4cc(C(=O)NCCC(=N)N)n(C)c4)n(C)c3)cn2C)cc1C(=O)NCCC(=N)N 48.1 µM (inactive)

Give the measured GI50 for COc1cc(CNc2nc3c(N)cc(C(F)(F)F)cc3nc2-c2ccccc2)cc(OC)c1OC 40.6 µM (inactive)

Give the measured GI50 for CC(C)(C)c1cc(C(O)(C(F)(F)F)C(F)(F)F)c2c(c1)C(C(F)(F)F)(C(F)(F)F)OC(C(C)(C)C)N2 (stereo not drawn) 3.88 µM (inactive)

Give the measured GI50 for CC1OC2(CC(OCc3ccccc3)C1OCc1ccccc1)OCCO2 (stereo not drawn) 71.8 µM (inactive)

Give the measured GI50 for O=S(=O)(O)c1ccc(/N=N\c2ccc(/N=N/c3ccc(/C=C/c4ccc(/N=[N+](\[O-])c5ccc(/C=C/c6ccc(/N=N/c7ccc(/N=N/c8ccc(S(=O)(=O)O)cc8)c8ccccc78)cc6S(=O)(=O)O)c(S(=O)(=O)O)c5)cc4S(=O)(=O)O)c(S(=O)(=O)O)c3)c3ccccc23)cc1 > 100 µM (inactive)

Give the measured GI50 for Cc1cc(N2CCOCC2)nc2ccc(Cc3ccc4nc(N5CCOCC5)cc(C)c4c3)cc12 15.6 µM (inactive)

Give the measured GI50 for CCOC(=O)c1ccc(N(CCOS(=O)(=O)c2ccc(C)cc2)CCOS(=O)(=O)c2ccc(C)cc2)cc1 > 100 µM (inactive)

Give the measured GI50 for CCOC(=O)C(=O)CC1=Nc2ccccc2SC(c2cccc(C)c2)C1 (stereo not drawn) 16.3 µM (inactive)

====

- Tested on: HL-60
- assay: NCI tumour cell line growth inhibition, 48 h
Active and inactive are the calls of the source. Rule as the data show it: active = GI50 up to about 1.1 µM and inactive = higher. Where a SMILES comes first, the peptide text is derived from it. [ ]: non-standard residue; d: D form. pGlu = O=C1CC[CH](C(=O)O)N1
Lab note: assign the record to one of active, inactive

Check the results log: what was the call for CC1=NNC(=O)C1C1(C(=O)O)CC(c2c[nH]c3ccccc23)=NC(=S)N1 (stereo unspecified) ? inactive

Check the results log: what was the call for CCCC(=O)Nc1cc(C(=O)N2C[C@@H]3C[C@]34C2=CC(=O)c2[nH]cc(C)c24)n(COC)c1 ? inactive

Check the results log: what was the call for CCOC(=O)C1=C(C(=O)OCC)C2(c3ccccc3)N(O1)c1ccccc1C2(C)C (stereo unspecified) ? inactive

Check the results log: what was the call for CN(C)CCNc1ccc2c(=O)n(CCN(C)C)c(=O)n3c4ccc(O)cc4c(=O)c1c23 ? active

Check the results log: what was the call for COc1ccc(/C=C/c2cc(OC)cc(OC)c2)cc1 [TRISMETHOXYRESVERATROL] ? inactive

Check the results log: what was the call for CC(NC(=O)C1CCC(=O)N1)C(=O)N1CCCC1C(N)=O (stereo not drawn) ([pGlu]-Ala-Pro-NH2; configuration not given here) ? inactive

====

- Tested on: RPMI-8226
- assay: NCI tumour cell line growth inhibition, 48 h
Active and inactive are the calls of the source. Rule as the data show it: active = GI50 up to about 1.1 µM and inactive = higher.
readout name: GI50

In the examples that follow, each entry is paired with its recorded GI50.
>>> observed("COc1ccc(C(=O)CC2=Nc3nnc(CCCCCCCc4nnc5n4C(=O)C(CC(=O)c4ccc(OC)cc4)=N5)n3C2=O)cc1")
"> 100 µM (inactive)"
>>> observed("C[n+]1c2ccccc2n2c3ccccc3c(NCCc3ccccn3)c(C#N)c21")
"1.64 µM (inactive)"

Give the measured GI50 for O=c1[nH]c(=O)n(C2OC(CO)C(O)C2O)c2ncc(-c3ccc(-c4ccccc4)cc3)nc12 (stereo not drawn) > 20 µM (inactive)

====

- Tested on: OVCAR-3
- assay: NCI tumour cell line growth inhibition, 48 h
Activity calls are given as the source filed them. Rule as the data show it: active = GI50 up to about 1.1 µM and inactive = higher.
readout name: GI50

In the examples that follow, each entry is paired with its recorded GI50.
>>> observed("CCCN1CN(c2ccccc2)C2(CCN(CCCC(=O)c3ccc(F)cc3)CC2)C1=O")
"13.8 µM (inactive)"
>>> observed("COc1cc(S(=O)(=O)Nc2nc(-c3ccc(/N=C/c4ccccc4O)cc3)cs2)ccc1Cl")
"33 µM (inactive)"
>>> observed("C=CCN(CC=C)Cn1c(=S)sc2ccccc21")
"> 100 µM (inactive)"
>>> observed("COc1ccc2c(c1)CCN=C2Cc1cc(OC)c(OC)cc1CCCl")
"22.7 µM (inactive)"

Give the measured GI50 for COc1ccc(CCNC(=O)[C@H]2CCCC[C@@H]2CCO)cc1OC > 100 µM (inactive)

====

- Test system: T47D
- assay: NCI tumour cell line growth inhibition, 48 h
Active and inactive are the calls of the source. No stated cut-off is given here; in the data, active = GI50 up to about 1.1 µM and inactive = higher.
Lab note: assign the record to one of active, inactive

Here are 3 molecules together with their reported answers.
>>> class_name("Cc1cn(C(Cc2ccccc2)OCCO)c(=O)[nH]c1=O (stereo not drawn)")
"inactive"
>>> class_name("CNC(=S)N/N=C/c1cccc(C)n1")
"inactive"
>>> class_name("COc1cc(/C=C/C(=O)c2c([O-])on[n+]2-c2ccccc2)ccc1O")
"inactive"

Check the results log: what was the call for CC1C(c2ccc3c(c2)OCO3)c2cc3c(cc2OC1N1CCOCC1)OCO3 (stereo not drawn) ? inactive

Check the results log: what was the call for C[C@]12CCC(=O)C(O)=C1CC[C@@H]1[C@@H]2CC[C@]2(C)C(=O)CC[C@@H]12 ? inactive

Check the results log: what was the call for O=C1NC(=O)[C@@H](OCC2CCCCC2)[C@@H]2OCC3OC(C(O)C3O)C12 (stereo partly drawn) ? inactive

Check the results log: what was the call for COc1cccc2c1C(=O)c1c(O)c3c(c(O)c1C2=O)C[C@H](O)C[C@@H]3OC1CC(N)C(O)C(C)O1 (stereo partly drawn) ? inactive

Check the results log: what was the call for CN(C)c1ccc(/C(Br)=C2\OC(=O)c3ccccc32)cc1 ? inactive

====

- Test system: CAKI-1
- assay: NCI tumour cell line growth inhibition, 48 h
Calls of active or inactive are those of the source. Cut-off read from the data, not from the text of the source: active = GI50 up to about 1.1 µM and inactive = higher.
Lab note: assign the record to one of true (1) = active, false (0) = inactive

Here are 5 molecules together with their reported answers.
>>> class_name("COc1cc2c(/C=C3/C(=O)Nc4ccc(O)cc43)c(Cl)n(Cc3ccccc3)c2cc1C")
"true (1)"
>>> class_name("COc1ccc(-n2c3c(c4cc(O)ccc42)Cc2ccccc2C3=O)cc1")
"false (0)"
>>> class_name("N#Cc1c(-c2ccc(Cl)cc2Cl)nc2[nH]nc(S)n2c1=O")
"false (0)"
>>> class_name("CCC1(CC)C(=O)NN(C(=O)c2ccccc2)C1=O")
"false (0)"
>>> class_name("Cc1cccc2nc3cccc(C(=O)NCCC[N+](C)(CCCNC(=O)c4cccc5nc6cccc(C)c6nc45)Cc4c([N+](=O)[O-])ncn4C)c3nc12")
"true (1)"

Would you kindly look at the next entry?
Check the results log: what was the call for O=[N+]([O-])C(C(Cl)=C(Cl)Cl)=C(n1cncn1)n1cncn1 ? false (0)
